# System: ACHN renal
# PROTOCOL TEXT: NCI-60 one-dose screen, 48 h (100 = growth as untreated, 0 = no growth, -100 = all killed)
# ASSAY CONDITIONS: 10 µM unless noted
The panel holds about 83,000 compounds, 20% with a hit somewhere; the sample as a whole holds those more often.
Labelling: growth reported below 50% becomes yes (1); at or above becomes no (0).

compound="COC(OC)C1(c2ccccc2)NC(=O)NC1=O (stereo not given)" class_name="no (0)"
compound="CN1C(=O)C2(SCC(C(=O)NCC(=O)OC(C)(C)C)N2C(=O)C2CCCCC2)c2ccccc21 (stereo not given)" class_name="no (0)"
compound=C/C(=N/NC(=O)Cn1c2ccccc2c2ccncc21)c1cccs1 class_name="no (0)"
compound=c1ccc(CNCCN(CCNCc2ccccn2)Cc2ccc3ccccc3c2)nc1 class_name="yes (1)"
compound=CCCOC(=O)c1ccc([N+](=O)[O-])o1 class_name="no (0)"
compound="Cc1cn([C@]2(CF)O[C@H](CO)C2C)c(=O)[nH]c1=O (stereo not given in full)" class_name="no (0)"
compound=Nc1nc(Cl)cc(NCc2ccc(CNc3cc(Cl)nc(N)n3)cc2)n1 class_name="no (0)"
compound=O=C(NC(=S)Nc1ccc(Cl)cc1)c1ccccc1 class_name="no (0)"
compound=CC(=O)Nc1ccc([I+]c2ccc([N+](=O)[O-])cc2)cc1 class_name="no (0)"
compound=O=C(O)c1cccc2oc(-c3ccccc3O)nc12 class_name="no (0)"
compound=C=C1C(=O)O[C@H]2[C@H]1CC/C(COC(=O)c1ccc(Br)cc1)=C\CC[C@@]1(C)O[C@@H]21 class_name="yes (1)"
compound=Nc1nccc2c1ccn2-c1cccc(NC(=O)c2ccc(N3CCOCC3)c(C(F)(F)F)c2)c1 class_name="yes (1)"
compound=Nc1nc(=S)ss1 class_name="no (0)"
compound=COc1ccc(-c2nn(-c3ccc(NC(=O)Nc4ccc(Cl)c(C(F)(F)F)c4)cc3)cc2-c2ccncc2)cc1Cl class_name="yes (1)"
compound=CCn1c(SCC(=O)c2ccc(Br)cc2)nnc1-c1cc2c([nH]c3ccccc32)c(-c2cccc(O)c2)n1 class_name="no (0)"
compound="CC(=O)c1ccc2c(c1)C1C=CCC1[C@H](c1cc3c(cc1Br)OCO3)N2 (stereo not given in full)" class_name="yes (1)"
compound=COc1cc2c(cc1OCCCCC(=O)Nc1ccc(-c3nc4ccccc4s3)cc1)N=C[C@@H]1CCCN1C2=O class_name="yes (1)"
compound=CCCCOc1nc2ccc(Cl)cc2cc1/C=C/C(=O)/C=C/c1ccc(OC)cc1 class_name="no (0)"
compound=Nc1nccc2c1ccn2-c1ccc(NC(=O)Nc2cccc(C(F)(F)F)c2)cc1 class_name="no (0)"
compound=COC(=O)c1oc2c(C(C)=O)c(OCCCN(C)C)ccc2c1C class_name="no (0)"
compound=Cc1ccc[n+](CC(=O)c2cccc3ccccc23)c1 class_name="no (0)"
compound=Clc1ccc2c(c1)nnn1c3ncccc3c(Br)c21 class_name="no (0)"
compound=Cc1cc(O[C@@H]2O[C@@H](C)[C@H](O)[C@@H](O)[C@H]2O)c2c3c(c(O[C@@H]4O[C@@H](C)[C@H](O)[C@@H](O)[C@H]4O)cc2c1)C(=O)c1c(O)cccc1C3=O class_name="yes (1)"
compound=Cc1cc[n+](CCCC[n+]2ccc(C)cc2)cc1 class_name="no (0)"
compound=O=C1/C(=C/c2cccc3cnccc23)Cc2cc(F)ccc21 class_name="no (0)"
compound=O=C(NCCNc1nccc(-c2c(-c3cccc(O)c3)nc3sccn23)n1)c1ccc(N2CCOCC2)c(C(F)(F)F)c1 class_name="no (0)"
compound="COc1ccc(/C=N/C2=NNC(C)(c3ccccc3O)N2C(Cc2c[nH]c3ccccc23)C(=O)O)cc1 (stereo not given)" class_name="yes (1)"
compound=O=C(Nc1ccc(-n2cc(-c3ccncc3)c(-c3ccc(O)c(Cl)c3)n2)cc1)Nc1cccc(Cl)c1Cl class_name="yes (1)"
compound=O=C(Nc1ccc(-n2cc(-c3ccncc3)c(-c3ccc(O)c(Cl)c3)n2)cc1)c1ccc(Cl)c(C(F)(F)F)c1 class_name="yes (1)"
compound=c1ccc([Se]CCCN2CCN(CCC[Se]c3ccccc3)CC2)cc1 class_name="no (0)"
compound=COc1cc2nc(C(=O)N3CCCCC3)cc(Nc3ccccc3)c2cc1OC class_name="no (0)"
compound=CC1(C)N=C(N)N=C(N)N1c1ccc(F)c(C(F)(F)F)c1 class_name="yes (1)"
compound=CCCCNC(=O)Oc1ccc(/C(=C(/CC)Cc2ccccc2)c2ccc(OCCCN(C)C)cc2)cc1 class_name="no (0)"
compound="CCC(N)(C(=O)O)c1ccc(F)cc1 (stereo not given)" class_name="no (0)"
compound=COC(=O)CCCNS(=O)(=O)c1cc(C(=O)Nc2ccc(NC(=O)c3cc(S(=O)(=O)NCCCC(=O)OC)c(O)c(O)c3O)cc2)c(O)c(O)c1O class_name="no (0)"
compound=CCCCCCCCCCCCCCCC(=O)NS(=O)(=O)OC[C@H]1O[C@@H](n2cnc3c(N)ncnc32)[C@H](O)[C@@H]1O class_name="yes (1)"
compound=O=C(Cn1c2ccccc2c2ccncc21)N/N=C\c1ccc2ccccc2c1 class_name="yes (1)"
compound=O=C(Nc1ccc(-n2ccc3c(NC(=O)c4ccccc4)ncnc32)cc1)Nc1cccc(Cl)c1Cl class_name="yes (1)"
compound=CC(C)(C)OC(=O)N1CCN(CCn2cc(C(F)(F)F)c3c(Cl)ncnc32)CC1 class_name="no (0)"
compound=CCCCC(=O)Nc1nc2ccc(SCCC)cc2s1 class_name="no (0)"
